molecular target: Recombinant human JARID1B/KDM5B (Homo sapiens, UniProt Q9UGL1); construct: purchased Active Motif 31432; host or cells: Sf9 insect cells; assay: LANCE Ultra TR-FRET JARID1B (KDM5B) demethylase inhibition assay; format: biochemical; settings: 0.1 uM of test-compounds, FLAG-JARID1B, 500 nM biotinylated H3K4me3 peptide substrate, 30 min at room temperature
Sequence (Q9UGL1 whole entry): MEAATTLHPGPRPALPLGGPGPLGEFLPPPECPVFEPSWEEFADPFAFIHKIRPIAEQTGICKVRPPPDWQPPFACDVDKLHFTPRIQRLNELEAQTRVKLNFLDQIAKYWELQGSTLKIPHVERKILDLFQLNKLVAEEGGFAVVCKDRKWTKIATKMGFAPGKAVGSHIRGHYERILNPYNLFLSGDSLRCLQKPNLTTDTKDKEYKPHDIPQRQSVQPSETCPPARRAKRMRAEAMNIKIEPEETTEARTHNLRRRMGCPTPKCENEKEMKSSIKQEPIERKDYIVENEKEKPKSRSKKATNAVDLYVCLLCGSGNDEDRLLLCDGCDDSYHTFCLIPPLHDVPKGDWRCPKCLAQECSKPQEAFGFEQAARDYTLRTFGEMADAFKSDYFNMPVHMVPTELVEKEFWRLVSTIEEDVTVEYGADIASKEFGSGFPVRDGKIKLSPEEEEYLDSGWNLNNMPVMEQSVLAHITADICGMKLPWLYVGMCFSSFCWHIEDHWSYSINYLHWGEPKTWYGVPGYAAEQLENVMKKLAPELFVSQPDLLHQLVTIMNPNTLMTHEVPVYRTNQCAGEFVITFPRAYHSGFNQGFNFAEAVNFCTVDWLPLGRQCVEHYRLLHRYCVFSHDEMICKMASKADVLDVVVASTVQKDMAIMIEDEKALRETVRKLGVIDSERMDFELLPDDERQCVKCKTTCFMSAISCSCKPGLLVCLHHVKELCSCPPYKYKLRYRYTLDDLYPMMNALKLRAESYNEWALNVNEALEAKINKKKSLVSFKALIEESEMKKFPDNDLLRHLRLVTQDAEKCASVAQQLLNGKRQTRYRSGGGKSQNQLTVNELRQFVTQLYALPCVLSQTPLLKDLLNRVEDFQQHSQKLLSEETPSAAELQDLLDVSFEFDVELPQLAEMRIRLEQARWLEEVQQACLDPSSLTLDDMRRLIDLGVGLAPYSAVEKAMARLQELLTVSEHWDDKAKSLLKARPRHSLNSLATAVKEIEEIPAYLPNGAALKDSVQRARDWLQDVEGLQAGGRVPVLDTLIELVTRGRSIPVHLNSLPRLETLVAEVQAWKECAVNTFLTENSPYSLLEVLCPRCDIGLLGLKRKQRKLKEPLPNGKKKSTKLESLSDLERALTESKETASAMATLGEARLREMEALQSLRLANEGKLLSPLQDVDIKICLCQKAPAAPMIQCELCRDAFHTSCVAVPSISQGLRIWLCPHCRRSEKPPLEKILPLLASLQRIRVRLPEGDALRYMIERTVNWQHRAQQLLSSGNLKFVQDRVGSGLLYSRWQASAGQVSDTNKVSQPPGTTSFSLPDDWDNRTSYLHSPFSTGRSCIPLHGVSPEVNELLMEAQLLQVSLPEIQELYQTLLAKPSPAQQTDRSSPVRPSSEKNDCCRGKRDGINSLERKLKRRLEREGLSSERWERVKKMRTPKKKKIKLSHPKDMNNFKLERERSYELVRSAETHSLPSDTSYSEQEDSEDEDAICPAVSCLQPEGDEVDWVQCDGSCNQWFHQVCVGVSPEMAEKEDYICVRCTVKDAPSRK
quantity: inhibition at 0.1 µM

Prompt line: # query: inhibition at 0.1 µM of entry CC(C)c1nc2c(-c3csc(NCCO)n3)nccc2c(=O)[nH]1 [Compound 138]
Response line: < 20%

Prompt line: Please look up its inhibition at 0.1 µM: O=c1[nH]c(COc2ccc(F)c(Cl)c2)nc2c(-c3csc(NCC(O)c4ccncc4)n3)nccc12 (stereo not shown) [Compound 111]
Response line: 20 to 50%

Prompt line: So what does the record say about inhibition at 0.1 µM for O=c1[nH]c(COc2ccc(F)c(Cl)c2)nc2c(-c3csc(NCCCCN4CCCC4)n3)nccc12 [Compound 119] ?
Response line: 20 to 50%

Prompt line: inhibition at 0.1 µM lookup needed for O=c1[nH]c(COc2ccc(F)c(Cl)c2)nc2c(-c3csc(NCCCc4ccccc4Cl)n3)nccc12 [Compound 109] , thanks.
Response line: < 20%
